Values from paper PMC9482650

ASSAY SYSTEM: T1, SNTG1, Q9NSN8
T1 sequence (Q9NSN8 52-150, limits assumed, looked up): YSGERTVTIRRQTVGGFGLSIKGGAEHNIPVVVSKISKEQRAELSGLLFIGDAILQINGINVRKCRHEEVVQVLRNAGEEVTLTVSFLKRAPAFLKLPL
METHOD DESCRIPTION: holdup assay
Design: key: below the threshold = too weak to quantify, mostly under pKd 3.1 to 4
EXPERIMENTAL PARAMETERS: plain residues with an end cap or a label only (N-terminal biotin on a linker: ado-ado)
MEASUREMENT LABEL: pKd

GVHSNDHSVV [LPAR1, Q92633]: below the threshold
VISSDDLTEL [CAPN6, Q9Y6Q1]: below the threshold
KKTPVSRSHL [SLC22A3, O75751]: below the threshold
PGKKPEDSRV [SLCO2B1, O94956]: below the threshold
SKQFDKNAYV [CLDN10, P78369]: below the threshold

pKd for EKPIDSETKM [SLC1A3, P43003] is below the threshold

pKd for DYSNLRETDI [ADRA1D, P25100] is 5.55

pKd for FLVTEFNVML [DFNB31, Q9P202] is below the threshold
